Biological target: T1, human GITR with mFc tag (huGITR-mFc) (human)
T1 chain: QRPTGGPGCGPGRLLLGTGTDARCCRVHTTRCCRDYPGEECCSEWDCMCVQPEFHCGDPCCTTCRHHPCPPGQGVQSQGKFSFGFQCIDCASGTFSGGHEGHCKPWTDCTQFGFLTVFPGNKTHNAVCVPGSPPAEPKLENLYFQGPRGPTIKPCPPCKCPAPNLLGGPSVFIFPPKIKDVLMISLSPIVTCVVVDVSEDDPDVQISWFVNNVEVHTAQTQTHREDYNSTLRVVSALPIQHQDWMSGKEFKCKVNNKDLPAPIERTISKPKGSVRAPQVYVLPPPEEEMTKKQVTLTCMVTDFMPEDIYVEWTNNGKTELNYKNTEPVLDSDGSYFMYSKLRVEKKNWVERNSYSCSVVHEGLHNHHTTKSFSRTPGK
Assay: ELISA, huGITR-mFc coated at 1 ug/ml
VALUE_TYPE: EC50 (nM)
State just the number; it will be interpreted in nM.

Use the examples below as a reference point.
mouse monoclonal antibody 7D9 (antibody, V domains shown, Mouse antibody from a hybridoma) VH: DVQLQESGPGLVKPSQSLSLTCTVTGYSITSDYAWNWIRQFPGNKLEWLGYISYSGSTYYNPSLKSRISLTRDTSKNQFFLQLNSVTSEDTATYYCARWDYRYDGRGFDYWGQGTTLTVSS VL: DIQMTQSPSSLSASLGERVSLTCRASQDIGSGLNWLQQEPDGTIKRLIYATSSLDSGVPKRFSGSRSGSDYSLTISSLESEDFVDYNCLQYTSTPWTFGGGTKLEIK :: 0.055
reference antibody BMAB (Merck's MK-4166 antibody) (antibody, V domains shown) VH: QVQLQQSGAEVKKPGSSVRVSCKASGGTFNNNAINWVRQAPGQGLEWMGGIIPMFGTAKYSQNFQGRVAITADESTGTASMELSSLRSEDTAVYYCARSRDLLLFPHHALSPWGRGTMVTVSS VL: SSELTQDPAVSVALGQTVRVTCQGDSLRSYYASWYQQKPGQAPVLVIYGKNNRPSGIPDRFSGSSSGNTASLTITGAQAEDEADYYCSSRDSSGNHWVFGGGTELTVLG :: 0.074
mouse monoclonal antibody 8A11 (antibody, V domains shown, Mouse antibody from a hybridoma) VH: EVKLVESGGGLVKPGGSLKLSCAASGFTFSSYAMSWVRQTPEKRLEWVAYISSGGSTYYPDSVKGRFTISRENARNILYLQMSSLRSEDTAMYYCAREGYGTYGDYWGQGTTLTVSS VL: DIVMSQSPSSLAVSVGEKVTMSCKSSQSLLYSTNQKNYLAWYQQKPGQSPKLLIYWASTRESGVPDRFTGSGSGTDFTLTISSVKAEDLAVYYCQQYYSYLRTFGGGTKLEIK :: 0.077

Next, consider the following binder.
So what's the measured EC50 for this one? mouse monoclonal antibody 16G9 (antibody, V domains shown, Mouse antibody from a hybridoma) VH: QVQLQQSGAELAKPGASVKMSCKASGYTFTTYWIHWIKQRPGQGLEWIGYINPSTGYTDYNQNFKDKATLTADQYSSTAYMQLSSLTFEDSAVYYCANYYGSTPYYWGRGTTLTVSS VL: QIVLTQSPAIMSASPGEKVTMTCSASSSVTYVHWYQQKSGASPERWIFDASKLASGVPARFSGSGSGTSYSLTISSMETEDAATYYCQQWSSNPLTFGAGTKLELK
0.075

Data origin: patent US20200131263A1
